System: 292921-168-R-J2-PDC complex spheroid viability
Assay text: Anticancer human tumor 292921-168-R-J2-PDC patient-derived pancreatic carcinoma cell line growth inhibition
Condition details: second compound 10 µM; first compound 0.3 µM; active compounds read low
Entries and their measured viability, T/C follow.
Just the number in %, nothing appended.

Here are 3 compounds together with their reported answers.
# Compound, Unit annotation, Numeric result
rows = [
    ("Nc1ccn(C2OC(CO)C(O)C2(F)F)c(=O)n1 (configuration not stated) + NC1CC1c1ccc(-c2cccc(O)c2)cc1", "%", 7.58),
    ("CCN(c1cc(-c2ccc(CN3CCOCC3)cc2)cc(C(=O)NCc2c(C)cc(C)[nH]c2=O)c1C)C1CCOCC1 + NC1CCC(NC2CC2c2ccccc2)CC1", "%", 56.8),
    ("COc1cc(C2c3cc4c(cc3C(OC3OC5COC(C)OC5C(O)C3O)C3COC(=O)C23)OCO4)cc(OC)c1O (configuration not stated) + NC1CCC(NC2CC2c2ccccc2)CC1", "%", 16.3),
]

Reported viability, T/C ( Nc1ncn(C2CC(O)C(CO)S2)c(=O)n1 (configuration not stated) + NC1CCC(NC2CC2c2ccccc2)CC1 ) = 11.5

Reported viability, T/C ( Nc1ccccc1NC(=O)c1ccc(CNC(=O)OCc2cccnc2)cc1 + NC1CCC(NC2CC2c2ccccc2)CC1 ) = 14.2

Reported viability, T/C ( NS(=O)(=O)OCC1CC(n2ccc3c(NC4CCc5ccccc54)ncnc32)CC1O (configuration not stated) + NC1CCC(NC2CC2c2ccccc2)CC1 ) = 2.29

Reported viability, T/C ( Nc1ncn(C2CC(O)C(CO)S2)c(=O)n1 (configuration not stated) + NC1CC1c1ccc(-c2cccc(O)c2)cc1 ) = 15.5

====

Tested on: 292921-168-R-J2-PDC complex spheroid viability
Assay text: Anticancer human tumor 292921-168-R-J2-PDC cell line growth inhibition; active = viability on the fitted dose curve at most 10% of control; inactive = the rest;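 further: seven day compound exposure before luminescent viability read; 100% = DMSO vehicle control wells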
Condition details: second compound 0.1 µM; first compound 0.316 µM
Reply using exactly one outcome from y (active), n (inactive)

# example entries with known answers
# Compound, Answer label
measured = [
    ("CC(C)c1c(-c2ccccc2)nc2c(C#N)c[nH]n2c1=O + NC1CCC(NC2CC2c2ccccc2)CC1", "n"),
    ("O=C(c1cc(Cc2n[nH]c(=O)c3ccccc23)ccc1F)N1CCN(C(=O)C2CC2)CC1 + NC1CC1c1ccc(-c2cccc(O)c2)cc1", "n"),
    ("CC1(C)CCC(CN2CCN(c3ccc(C(=O)NS(=O)(=O)c4ccc(NCC5CCOCC5)c([N+](=O)[O-])c4)c(Oc4cnc5[nH]ccc5c4)c3)CC2)=C(c2ccc(Cl)cc2)C1 + NC1CCC(NC2CC2c2ccccc2)CC1", "n"),
]

Q. What classification did O=C(C=Cn1cnc(-c2cc(C(F)(F)F)cc(C(F)(F)F)c2)n1)NNc1cnccn1 + NC1CC1c1ccc(-c2cccc(O)c2)cc1 end up with in this test?
A. y

Q. What classification did COc1cc(Nc2ncc3c(n2)-c2ccc(Cl)cc2C(c2c(F)cccc2OC)=NC3)ccc1C(=O)O + NC1CCC(NC2CC2c2ccccc2)CC1 end up with in this test?
A. n

Q. What classification did CC1COCCN1c1cc(C2(S(C)(=N)=O)CC2)nc(-c2ccnc3[nH]ccc23)n1 (stereo not given) + NC1CC1c1ccc(-c2cccc(O)c2)cc1 end up with in this test?
A. n

Q. What classification did CC(C)c1c(-c2ccccc2)nc2c(C#N)c[nH]n2c1=O + NC1CC1c1ccc(-c2cccc(O)c2)cc1 end up with in this test?
A. n

Q. What classification did CC1(C)CCC(CN2CCN(c3ccc(C(=O)NS(=O)(=O)c4ccc(NCC5CCOCC5)c([N+](=O)[O-])c4)c(Oc4cnc5[nH]ccc5c4)c3)CC2)=C(c2ccc(Cl)cc2)C1 + NC1CC1c1ccc(-c2cccc(O)c2)cc1 end up with in this test?
A. n

Q. What classification did O=C(c1cc(Cc2n[nH]c(=O)c3ccccc23)ccc1F)N1CCN(C(=O)C2CC2)CC1 + NC1CCC(NC2CC2c2ccccc2)CC1 end up with in this test?
A. n

Q. What classification did Nc1ncn(C2CC(O)C(CO)O2)c(=O)n1 (stereo not given) + NC1CCC(NC2CC2c2ccccc2)CC1 end up with in this test?
A. n

Q. What classification did COc1cc(Nc2ncc3c(n2)-c2ccc(Cl)cc2C(c2c(F)cccc2OC)=NC3)ccc1C(=O)O + NC1CC1c1ccc(-c2cccc(O)c2)cc1 end up with in this test?
A. n

Q. What classification did CC1COCCN1c1cc(-c2ccnn2C)c2ccnc(-c3ccn[nH]3)c2n1 (stereo not given) + NC1CCC(NC2CC2c2ccccc2)CC1 end up with in this test?
A. n
